# Tested on: DMS 114 small cell lung
# Assay Protocol: NCI tumour cell line growth inhibition, 48 h
In this section we review reported TGI values for a set of compounds.

Consider the worked cases shown below.
{"columns": ["Compound", "Assay System", "TGI"],
 "data": [
  ["CSC(C1c2ccccc2N(c2ccc(C)cc2)C2=NC(=O)N(C)C(=O)C21Cl)S(=O)(=O)c1ccc(C)cc1 (stereo unspecified)", "DMS 114 small cell lung", "49.8 µM"],
  ["[Cl-].[Dy+3].[O-]/N=C(\\c1ccccc1)c1ccccn1.[O-]/N=C(\\c1ccccc1)c1ccccn1.[O-]/N=C(\\c1ccccc1)c1ccccn1", "DMS 114 small cell lung", "77.6 µM"],
  ["COC(=O)/C=C/c1cc(OC)c(OC)c(OC)c1", "DMS 114 small cell lung", "> 100 µM"],
  ["CC1=NN(C(=O)Nc2ccccc2)C(=O)C2CCC(=O)N12 (stereo unspecified)", "DMS 114 small cell lung", "> 100 µM"],
  ["CC(C)(C)C1CCC2(CC1)c1[nH]c3ccccc3c1C1(CCC(C(C)(C)C)CC1)c1[nH]c3ccccc3c12 (stereo unspecified)", "DMS 114 small cell lung", "57.3 µM"],
  ["O=C1/C(=C/c2ccccc2)CNC/C1=C\\c1ccccc1", "DMS 114 small cell lung", "8.36 µM"],
  ["O=C1NC2OC(CO)C(O)C(O1)C2O (stereo unspecified)", "DMS 114 small cell lung", "> 100 µM"],
  ["CC(=O)CNC(=O)OC(C)(C)C", "DMS 114 small cell lung", "> 100 µM"],
  ["O=C(CC1=NCCN1)c1ccccc1", "DMS 114 small cell lung", "> 750 µM"],
  ["O=C1C2c3[nH]c4ccccc4c3C3CCCCCCC3C2C(=O)N1c1ccccc1 (stereo unspecified)", "DMS 114 small cell lung", "17.5 µM"]
]}

Continue with the next compound.
Retrieve TGI measured for "Brc1cccc(C=NC23CC4CC(CC(C4)C2)C3)c1" and print it.
> 100 µM
